Examples of molecules with documented MIC follow.
- System: Pseudomonas aeruginosa (P. aeruginosa) 27853
- protocol: Antibacterial activity, MIC, P. aeruginosa 27853
- Type: cell-based
- condition summary: Pseudomonas aeruginosa, P. aeruginosa 27853; read-out: MIC 27853

| molecule | MIC |
| --- | --- |
| CCc1c(-c2ccc(N3CCC(N4CCCC4)C3)cc2)[nH]c(=O)c(C(=O)O)c1O.Cl (stereo not shown) | 12.5 to 150 µg/mL |
| CCc1cc(C(=O)O)c(=O)[nH]c1-c1ccc(N2CCC(c3ccncc3)C2)cc1 (stereo not shown) | 12.5 to 150 µg/mL |
| CCc1c(-c2cnc(N3CCC(N(C)C)C3)cn2)[nH]c(=O)c(C(=O)O)c1O (stereo not shown) | 12.5 to 150 µg/mL |

Could you share which MIC value was measured for CCc1cc(C(=O)O)c(=O)[nH]c1-c1ccc(N2CCC(N3CCOCC3)C2)cc1.O=C(O)C(F)(F)F (stereo not shown) ?
12.5 to 150 µg/mL

Field request: MIC | item: Cc1c(-c2ccc(N3CCC(N(C)C)C3)cn2)[nH]c(=O)c(C(=O)O)c1O (stereo not shown)
12.5 to 150 µg/mL

Which MIC is listed for CCc1cc(C(=O)O)c(=O)[nH]c1-c1ccc(-n2cccc2)cc1 ?
12.5 to 150 µg/mL

Item under review: CCc1cc(C(=O)O)c(=O)[nH]c1-c1ccc(N(C)c2ccccc2)cc1 . Reported MIC?
12.5 to 150 µg/mL

Could you share which MIC value was measured for CCc1c(-c2ccc(N3CCC(O)(CC)C3)cc2)[nH]c(=O)c(C(=O)O)c1O (stereo not shown) ?
3.5 to 12.5 µg/mL

May I ask what MIC has been recorded for CCc1c(-c2ccc(N3CC4CCCCC4(C#N)C3)cc2)[nH]c(=O)c(C(=O)O)c1O.O=C(O)C(F)(F)F (stereo not shown) ?
12.5 to 150 µg/mL

What value of measured MIC is listed for CCc1c(-c2ccc(N3C[C@H]4CC[C@H](NC)[C@H]4C3)cc2)[nH]c(=O)c(C(=O)O)c1O.Cl ?
12.5 to 150 µg/mL

Can you share its MIC? I mean this molecule: CCc1cc(C(=O)O)c(=O)[nH]c1-c1ccc(N2C[C@H]3CC[C@@H](N)[C@H]3C2)cc1.O=C(O)C(F)(F)F
12.5 to 150 µg/mL

# get_value(readout='MIC', item= CCc1c(-c2ccc(N3CCC(C)(CN)C3)cc2)[nH]c(=O)c(C(=O)O)c1O (stereo not shown) )
12.5 to 150 µg/mL

Find the recorded MIC belonging to CCc1cc(C(=O)O)c(=O)[nH]c1-c1ccc(N2CCCC2)cc1 and report it.
3.5 to 12.5 µg/mL

Requested field: MIC. Item: CCc1cc(C(=O)O)c(=O)[nH]c1-c1ccc(N2CCC(c3ccccn3)C2)cc1 (stereo not shown)
3.5 to 12.5 µg/mL

Would you mind telling me what MIC value was observed for CN(C)c1ccc(-c2[nH]c(=O)c(C(=O)O)cc2C2CC2)cc1 ?
12.5 to 150 µg/mL

If you can, please state the reported MIC value of CCc1cc(C(=O)O)c(=O)[nH]c1-c1ccc(N(C)C)cc1 .
3.5 to 12.5 µg/mL

Find the recorded MIC belonging to C/C=C/c1c(-c2ccc(N(C)C)cc2)[nH]c(=O)c(C(=O)O)c1O and report it.
12.5 to 150 µg/mL

MIC lookup needed for CCc1cc(C(=O)O)c(=O)[nH]c1-c1ccc(N2C[C@H]3CCC[C@H](N=[N+]=[N-])[C@H]3C2)cc1.O=C(O)C(F)(F)F , thanks.
12.5 to 150 µg/mL

Which MIC is reported for this molecule? CCc1cc(C(=O)O)c(=O)[nH]c1-c1ccc(N2CCC(NCc3ccccc3)C2)cc1.Cl (stereo not shown)
12.5 to 150 µg/mL
